system: HL-60(TB) leukemia; experiment: NCI-60 one-dose screen, 48 h; details: 10 µM unless noted
About 83,000 compounds went through this panel and 20% of them were active in at least one assay; those are over-represented in the sample as a whole. Calls of active or inactive are those of the source. Rule for the calls: active = growth percent below 10; inactive = the rest.
Hello, when you answer, please use one of the following outcomes: yes (1) for active, no (0) for inactive

Query string: What did this assay record as the result for COc1ccc(-c2cc(C(=O)N=Nc3c(O)[nH]c4ccc(F)cc34)c3ccccc3n2)cc1 ?
Result string: no (0)

Query string: What did this assay record as the result for O=C(Nc1cccc(C(F)(F)F)c1)c1cncc(C#Cc2cnc3cccnn23)c1 ?
Result string: no (0)

Query string: What did this assay record as the result for O=c1oc2ccc(-c3ccc(F)cc3F)cc2c(=O)n1-c1ccc(F)cc1 ?
Result string: yes (1)

----------
tested on: HL-60(TB) leukemia; test: NCI-60 one-dose screen, 48 h (100 = growth as untreated, 0 = no growth, -100 = all killed); conditions: 10 µM unless noted
The panel holds about 83,000 compounds, 20% with a hit somewhere; the sample as a whole holds those more often.
Property: growth (%)
One number for each entry, in %.

Below: 3 compounds and their reported growth.
* CCCCN1C(=O)/C(=C\C(=O)c2cc3ccccc3oc2=O)c2ccccc21 | 74.8
* C/C(=N/O)c1ccc(NC(=O)CSc2nnc(-c3ccc(-c4nc5ccc(Cl)cc5[nH]4)cc3)o2)cc1 | 44
* COc1cccc(O)c1/C=C1\SCc2cc3c(OC)cccc3[o+]c21 | 100

For the 7 compounds below, give their growth values.
1. COc1ccc(C2(SCCNCc3cc(N(C)C)ccn3)c3ccccc3C=Cc3ccccc32)cc1
2. O=C(Nc1nc2ccc([N+](=O)[O-])cc2s1)Nc1cc(Cl)ccc1I
3. Cn1cc(-c2cc(N)n3nc(-c4c[nH]c5ccccc45)cc3n2)c2cc(Br)ccc21
4. COc1ccc2oc(=O)c(C3(C)NC(=O)c4c(/C=C/C(=O)OC(C)(C)C)cccc4N3)cc2c1 (stereo not given)
5. CCCSc1nc(NC2CC2)c(C#N)c(-c2ccc(OC)cc2)n1
6. Cc1ccc2c(N)c(C(=O)Nc3ccc(OC(F)(F)F)cc3)sc2n1
7. CCN(CC)c1ccnc(CNCCSC(c2ccccc2)(c2ccccc2)c2ccc(OC)cc2)c1

Result string:
[-21.8, -47.7, -18.3, -5.42, 81, 61.6, -34.3]

----------
tested on: SK-MEL-5 melanoma; assay: NCI-60 one-dose screen, 48 h (100 = growth as untreated, 0 = no growth, -100 = all killed); settings: 10 µM
The panel holds about 83,000 compounds, 20% with a hit somewhere; the sample as a whole holds those more often.
Property: growth (%)
Numbers only, in %.

Below: 10 compounds and their reported growth.
- COc1cc2cc(C(=O)N3C[C@@H](CCl)c4c3cc(OC(=O)N3CCN(C(=O)CCC(=O)N5CCN(C)CC5)[C@@H]5CSSC[C@@H]53)c3ccccc43)[nH]c2c(OC)c1OC: -100
- CC12CCC3(CCC(=O)NCCCNc4ccnc5cc(Cl)ccc45)[C@@](C)(OO[C@]3(C)O1)O2: 14.2
- CC(=O)Oc1ccccc1C(=O)NC([Se])=NC1CCCCC1: -80
- O=C(/C=C/c1cccc(Br)c1)c1nc2ccccc2n1Cc1ccc(F)cc1: 58.3
- O=C(/C=C/c1ccc(Cl)cc1Cl)c1nc2ccccc2n1Cc1ccc(F)cc1: 74.5
- COc1ccc2cc([C@H](C)C(=O)[Se]CCC#N)ccc2c1: -70.4
- N#C[Se]CC(=O)Nc1cccc(C(F)(F)F)c1: -73.4
- O=C(/C=C/c1ccc(Br)cc1)c1nc2ccccc2n1Cc1ccc(Br)cc1: 1.54
- O=C([Se]C1C=CCCC1)c1ccc(C(=O)[Se]C2C=CCCC2)s1 (configuration not stated): -88.8
- C=CC[Se]C(=O)c1ccc(C(=O)[Se]CC=C)s1: -70.8

For the 5 compounds below, give their growth values.
1. C#CC[Se]C(=O)c1ccc2n[se]nc2c1
2. COP(=O)(CC(F)(F)C(F)(F)F)OC
3. COCCOCCOCCOc1ccc(-n2cc(CCCN(CCNc3ccnc4cc(Cl)ccc34)C(=O)CCC(=O)O[C@@H]3O[C@@H]4OC5(C)CC[C@H]6[C@H](C)CC[C@@H]([C@H]3C)[C@@]46OO5)nn2)cc1
4. CC1=C(CCC=O)C2=C(C)C3(CC3)[C@@](C)(O)C(=O)C2=C1
5. CC(=O)Oc1ccccc1C(=O)[Se]C(=NC(C)C)NC(C)C

Result string:
1: 83.2; 2: 80.8; 3: -16.4; 4: -100; 5: -84.4

For the 4 compounds below, give their growth values.
1. O=C(NC([Se])=NC1CCCCC1)c1ccc2c(c1)OCO2
2. CC[C@]12C=CCN3CC[C@@]4(c5ccc(OC)cc5N(C)[C@H]4[C@@](O)(C(=O)OC)[C@@H]1OC(=O)CCC[P+](C1CCCCC1)(C1CCCCC1)C1CCCCC1)[C@@H]32
3. CC12OOC(C)(OO1)C2CCC(=O)NCCNc1ccnc2cc(Cl)ccc12 (configuration not stated)
4. O=C(/C=C/c1ccc(Cl)cc1Cl)c1nc2ccccc2n1Cc1ccc(Br)cc1

Result string:
1. 79.3
2. -98.4
3. 93.9
4. 85

For the 7 compounds below, give their growth values.
1. CC[C@]12C=CCN3CC[C@@]4(c5ccc(OC)cc5N(C)[C@H]4[C@@](O)(C(=O)OC)[C@@H]1OC(=O)CCCC[P+](c1ccc(C)cc1)(c1ccc(C)cc1)c1ccc(C)cc1)[C@@H]32
2. C=CC[Se]C(=O)c1cncc(C(=O)[Se]CC=C)c1
3. O=C(/C=C/c1ccc(Cl)cc1)c1nc2ccccc2n1Cc1ccc(F)cc1
4. COc1cc2cc(C(=O)N3C[C@@H](CCl)c4c3cc(OC(=O)N3CCN(C)[C@@H]5CSSC[C@@H]53)c3ccccc43)[nH]c2c(OC)c1OC
5. COC(=O)C[C@](O)(CCC(C)C)C(=O)O[C@H]1C(OC)=C[C@@]23CCCN2CCc2cc4c(cc2[C@@H]13)OCO4
6. COCCOCCOCCOc1ccc(-n2cc(-c3ccc(O[C@H]4O[C@@H]5OC6(C)CC[C@H]7[C@H](C)CC[C@@H]([C@H]4C)[C@@]57OO6)cc3)nn2)cc1
7. CCC[Se]C(=O)c1ccc(C(=O)[Se]CCC)s1

Result string:
1. -98.5
2. -36.3
3. 69
4. -32.2
5. -70.4
6. -24.4
7. -76.3
